Listed below: speed of sound values for each entry.
- measurementParameters: 303.15 K; 101 kPa; Liquid; Linear variable-path acoustic interferometer
Numbers after ± are expanded uncertainties.
Please report the result as a number followed by the unit.

Example entries begin here.
C1CCOC1 [tetrahydrofuran]	1256 ± 2 m/s
Nc1ccccc1	1615 ± 3 m/s
CCNc1ccccc1	1497 ± 3 m/s

Lab book: speed of sound of `CNc1ccccc1` noted as 1548 ± 3 m/s

###

- measurementParameters: 303.15 K; 101 kPa; Liquid; Pycnometric method
± gives the expanded uncertainty stated by the source.
quantityKind: mass density
Report as: number unit

C1CCOC1 [tetrahydrofuran]	877.3 ± 0.3 kg/m3
Nc1ccccc1 [aniline]	1012.8 ± 0.4 kg/m3
CCNc1ccccc1 [N-ethylaminobenzene]	951.9 ± 0.3 kg/m3

Note to self: mass density recorded for CNc1ccccc1 [N-methylaniline] was 978.2 ± 0.3 kg/m3
